# protocol.description: protein stability index of a GFP-peptide fusion (yeast GPS) (PSI 1-4); higher = more stable; sorted into four equal gates, so the index is relative within each strain
# assay.conditions: doa10∆
Class yes (1): protein stability index at least 3. Class no (0): protein stability index below 3.

sequence.code	classification
QIFKVAGENAPSIVFID [RPT2]	no (0)
NTDLKDIIQGNPLMYSG [PCI8]	no (0)
HQSELIIKQTVHPIPDV [YMR129W/POM152]	no (0)
MSACVGQQSVEGKRIAF [RPO21]	no (0)
NTAAALVSLLDENDSKK [YAR002W/NUP60]	yes (1)
QRLVTPQRLQRKRHQRA [RPS6A]	no (0)

Origin of values: the supplement of paper PMC9732359
